Tested on: Staphylococcus aureus S13E
Format: cell-based
Known MIC of a selection of molecules
readout kind: MIC

molecule: CNC(CC(C)C)C(=O)NC1C(=O)NC(CC(N)=O)C(=O)NC2C(=O)NC3C(=O)NC(C(=O)NC(C(=O)O)c4cc(O)cc(O)c4-c4cc3ccc4O)C(OC3CC(C)(N)C(O)C(C)O3)c3ccc(c(Cl)c3)Oc3cc2cc(c3OC2OC(CO)C(O)C(O)C2OC2CC(C)(NCc3ccc4c(c3O)Cc3ccccc3-4)C(O)C(C)O2)Oc2ccc(cc2Cl)C1O (stereo not drawn) [Compound 103]
readout kind: MIC
test result: 1 µg/mL
--
molecule: CNC(CC(C)C)C(=O)NC1C(=O)NC(CC(N)=O)C(=O)NC2C(=O)NC3C(=O)NC(C(=O)NC(C(=O)O)c4cc(O)cc(O)c4-c4cc3ccc4O)C(OC3CC(C)(N)C(O)C(C)O3)c3ccc(c(Cl)c3)Oc3cc2cc(c3OC2OC(CO)C(O)C(O)C2OC2CC(C)(NCc3ccc(Cl)c(C(=O)c4ccccc4)c3Cl)C(O)C(C)O2)Oc2ccc(cc2Cl)C1O (stereo not drawn) [Compound 133]
readout kind: MIC
test result: 1 µg/mL
--
molecule: CNC(CC(C)C)C(=O)NC1C(=O)NC(CC(N)=O)C(=O)NC2C(=O)NC3C(=O)NC(C(=O)NC(C(=O)O)c4cc(O)cc(O)c4-c4cc3ccc4O)C(OC3CC(C)(N)C(O)C(C)O3)c3ccc(c(Cl)c3)Oc3cc2cc(c3OC2OC(CO)C(O)C(O)C2OC2CC(C)(NCc3ccc(-c4ccc([N+](=O)[O-])cc4)cc3)C(O)C(C)O2)Oc2ccc(cc2Cl)C1O (stereo not drawn) [Compound 64]
readout kind: MIC
test result: 2 µg/mL
--
molecule: CC#CCCCCCCCCCCOc1ccc(CNC2(C)CC(OC3C(Oc4c5cc6cc4Oc4ccc(cc4Cl)C(OC4CC(C)(N)C(O)C(C)O4)C4NC(=O)C(NC(=O)C6NC(=O)C(CC(N)=O)NC(=O)C(NC(=O)C(CC(C)C)NC)C(O)c6ccc(c(Cl)c6)O5)c5ccc(O)c(c5)-c5c(O)cc(O)cc5C(C(=O)O)NC4=O)OC(CO)C(O)C3O)OC(C)C2O)cc1 (stereo not drawn) [Compound 233]
readout kind: MIC
test result: 8 µg/mL
--
molecule: CNC(CC(C)C)C(=O)NC1C(=O)NC(CC(N)=O)C(=O)NC2C(=O)NC3C(=O)NC(C(=O)NC(C(=O)O)c4cc(O)cc(O)c4-c4cc3ccc4O)C(OC3CC(C)(N)C(O)C(C)O3)c3ccc(c(Cl)c3)Oc3cc2cc(c3OC2OC(CO)C(O)C(O)C2OC2CC(C)(NCc3ccc(-c4cccs4)cc3)C(O)C(C)O2)Oc2ccc(cc2Cl)C1O (stereo not drawn) [Compound 218]
readout kind: MIC
test result: 32 µg/mL
--
molecule: CC(C)CC(C(=O)NC1C(=O)NC(CC(N)=O)C(=O)NC2C(=O)NC3C(=O)NC(C(=O)NC(C(=O)O)c4cc(O)cc(O)c4-c4cc3ccc4O)C(OC3CC(C)(N)C(O)C(C)O3)c3ccc(c(Cl)c3)Oc3cc2cc(c3OC2OC(CO)C(O)C(O)C2OC2CC(C)(NCc3ccc(Oc4ccc([N+](=O)[O-])cc4)cc3)C(O)C(C)O2)Oc2ccc(cc2Cl)C1O)N(C)Cc1ccc(Oc2ccc([N+](=O)[O-])cc2)cc1 (stereo not drawn) [Compound 267]
readout kind: MIC
test result: 1 µg/mL
